# Tested on: MDA-MB-468 breast
# Method: NCI-60 one-dose screen, 48 h (100 = growth as untreated, 0 = no growth, -100 = all killed)
# Study Conditions: 10 µM unless noted
Compounds without any hit were thinned out: in the full panel of roughly 83,000, 20% have a hit.
Quantity Kind: growth (%)
Respond numerically; units are % and should not be typed.

Please review the entries below; each comes with its answer.
| Compound | growth [%] |
| --- | --- |
| COc1cc(OC)c2sc(-c3ccc(-n4cncc4-c4cc(OC)c(OC)c(OC)c4)cc3)nc2c1 | 43.5 |
| CCOC(=O)c1cc(C(=O)c2cc(OC)c(OC)c(OC)c2)n2c1ccc1ccccc12 | 1.54 |

# growth of "Cc1cc2ccccc2nc1-c1ccccc1F" = 105

Noted for "CN1CCN(c2nc(C3=C(c4c[nH]c5ccccc45)C(=O)NC3=O)c3ccccc3n2)CC1" : its growth reads 131

Data point: Cc1nc2ccccc2n1CC1NC(=O)NC1=O (stereo not given) ; growth = 97.6

Record "COc1cc2nc3cc([N+](=O)[O-])ccc3c(NCCCNCC(C)(C)O)c2cc1OC" . Reported growth: -57.7

// recorded growth for "Cc1cc(N(CCCNc2ccnc3cc(Cl)ccc23)Cc2ccc3c(c2)OCO3)nc(N2CCOCC2)n1" : -14.4

Summary for this compound, "Cc1ccc2c(n1)C(=O)C(Br)=C(CC(C)C)C2=O" : growth is 91.1

Looking up "CS(=O)(=O)c1ccc(-n2cc(/C=C/C(=O)c3ccc(NC(=O)CO[N+](=O)[O-])cc3)c(-c3ccc(Cl)cc3)n2)cc1" , I see its growth listed as 94.1

Value of measured growth for the entry "NC(N)=NN=C(c1ccccc1)c1ccccc1" : -31.3

* * *

# System: MDA-MB-468 breast
# Method: NCI-60 one-dose screen, 48 h (100 = growth as untreated, 0 = no growth, -100 = all killed)
# Study Conditions: 10 µM unless noted
This is part of a sample that, as a whole, favours compounds with a hit. Of some 83,000 tested, about 20% had one in any assay.
Quantity Kind: growth (%)
// note: answer is a bare numeric in %

Example entries begin here.
| Molecule | Val |
| --- | --- |
| CC(=O)Oc1ccc(C(c2ccc(OC(C)=O)cc2)c2ccccn2)cc1 | 17.3 |
| Cc1cc(=O)n2nc(-c3c[nH]c4ccccc34)sc2n1 | 88.8 |
| CCOS(=O)(=O)c1c(C(C)C)cc(C(C)C)cc1C(C)C | 102 |
| CN(Cc1ccccc1)c1nc(Cl)c(C2CC(c3ccc(Cl)cc3)=Cc3[nH][nH]c(=O)c32)s1 (stereo not given) | 106 |

Sample "Cc1c(-c2ccc(O)cc2)n(Cc2ccc(OCCN3CCCCCC3)cc2)c2ccc(O)cc12" ; growth observed: 74

* * *

# Tested on: K-562 leukemia
# Method: NCI-60 one-dose screen, 48 h (100 = growth as untreated, 0 = no growth, -100 = all killed)
# Study Conditions: 10 µM
The panel holds about 83,000 compounds, 20% with a hit somewhere; the sample as a whole holds those more often.
Outcome: Y for growth of at least 40%; N for anything lower.

Illustrative cases are given below, each with its answer.
| Compound | Category Label |
| --- | --- |
| COc1ccc(C2OC[C@@]3(C)C4CC[C@]5(C)C(CC=C6C7CC(C)(C)CC[C@]7(C(=O)O)CC[C@]65C)[C@@]4(C)C[C@@H](O)[C@@H]3O2)cc1 (stereo partly drawn) | Y |
| Cn1cc(-c2nnc(N)nc2-c2c[nH]c3ccc(F)cc23)c2cc(Br)cnc21 | Y |
| O=C(CC(=O)Nc1ccc(Oc2ncnc3scc(Nc4n[nH]c(=S)s4)c23)cc1)Nc1ccc(Cl)cc1 | Y |
| CCOC(=O)C1=C(N)N(c2ccc(C)cc2)C2=C(C(=O)CC(C)(C)C2)C1c1ccccc1Br (stereo not drawn) | Y |
| CC(C)(C)c1cc(/C=C2\S/C(=N/c3ncn[nH]3)NC2=O)cc(C(C)(C)C)c1O | N |

Task: Check if growth >= 40% (inclusive). Item: "O=C(Nc1ccc(OCc2ccc(Cl)cc2)cc1)Nc1ccc(Cl)c(C(F)(F)F)c1"
Result: N

Task: growth >= 40% for "COc1ccc(-n2c(SCC(=O)NNS(=O)(=O)c3ccccc3)nc3ccc(Cl)cc3c2=O)cc1" ?
Result: Y

Task: Hi team, for "O=C(CN1CCN(c2ncnc3c2cnn3-c2ccccc2)CC1)Nc1ccc(Cl)cc1" , is the recorded growth at or above 40%?
Result: Y

* * *

# Test system: K-562 leukemia
# Method: NCI-60 one-dose screen, 48 h
# Study Conditions: 10 µM
Compounds without any hit were thinned out: in the full panel of roughly 83,000, 20% have a hit. The source made the active and inactive calls. How the source made its calls: active means growth percent below 10; inactive means the rest.
Would you mind answering with one of these outcomes? 1 for active, -1 for inactive

Example cases with answers are listed next.
| Compound | Target | Category Label |
| --- | --- | --- |
| Cc1ccc(COc2ccc(NC(=O)Nc3ccc(Cl)c(C(F)(F)F)c3)cc2)cc1 | K-562 leukemia | -1 |
| COc1ccc(Cc2nn(CC(=O)N/N=C/c3ccc(Br)cc3)c(=O)c3c(C)noc23)cc1 | K-562 leukemia | -1 |

Task: Query: recorded result category for "COc1ccc(Cc2nn(CC(=O)N/N=C/c3ccc([N+](=O)[O-])cc3)c(=O)c3c(C)noc23)cc1" in this test
Result: -1

Task: Kindly provide the recorded test outcome for the following compound: "CC1(C)CC(=O)C2=C(C1)N(Cc1ccc(C(=O)O)cc1)C1=C(C(=O)CC(C)(C)C1)C2c1ccc(Cl)cc1"
Result: -1

Task: What did the test return for "O=C(O)CCN1C(=O)/C(=C/C=C/c2ccc([N+](=O)[O-])o2)SC1=S" ?
Result: -1

Task: Dear colleague, could you share the recorded outcome for COc1ccc(C2c3sc4ccc(C)cc4c3Oc3nc[nH]c(=O)c32)cc1 (centres undefined) when you have a moment?
Result: -1

Task: Hi, sorry to bother you, what did the test record for "Cc1ccc2c(c1)C(=O)/C(=C/c1c[nH]c3ccccc13)S2" ?
Result: -1

Task: Assay result, entry "Cn1cc(-c2nnc(N)nc2-c2c[nH]c3ccccc23)c2cc(Br)cnc21" — outcome?
Result: -1

Task: For this compound, state the assay outcome: "COc1ccc(C(=O)COc2ccc(NC(=O)Nc3ccc(Cl)c(C(F)(F)F)c3)cc2)cc1"
Result: -1

Task: # lookup: test call for "CCOc1ccc(/C=N/NC(=O)Cn2nc(Cc3ccc(OC)cc3)c3onc(C)c3c2=O)cc1"
Result: -1

Task: Status in this test for "O=C(c1ccc(Cl)cc1)C(c1c[nH]c2ccccc12)c1c[nH]c2ccccc12" ?
Result: 1

Task: Fill in: this test's call for COc1cc(C2CC(c3ccc(Oc4ccc(Cl)cc4)cc3)=NN2c2nc(-c3ccc(Cl)cc3)c(C#N)c(N3CCOCC3)n2)cc(OC)c1OC (centres undefined) is ___
Result: -1

Task: What outcome does the record of this test show for "O=C1S/C(=C\c2ccc([N+](=O)[O-])cc2)C(=O)N1CCN1CCCCC1" ?
Result: -1

Task: Hey, what did the test say about "Cc1ccc(S(=O)(=O)N2CCN(S(=O)(=O)c3oc(-c4ccccc4)nc3C#N)CC2)cc1" ?
Result: -1

Task: Call for entry CC1[C@H]2[C@H](C[C@H]3[C@@H]4CC=C5c6sc(Nc7cccc(Cl)n7)nc6CC[C@]5(C)[C@H]4CC[C@@]32C)O[C@]12CC[C@@H](C)CO2 (some centres undefined) :
Result: -1

Task: Entry "C#C[C@]1(O)CC[C@H]2[C@@H]3CC=C4c5sc(Nc6ccc(C(F)(F)F)cn6)nc5CC[C@]4(C)[C@H]3CC[C@@]21C" : call = ?
Result: 1

* * *

# System: MDA-MB-468 breast
# Method: NCI-60 one-dose screen, 48 h
# Study Conditions: 10 µM unless noted
This is part of a sample that, as a whole, favours compounds with a hit. Of some 83,000 tested, about 20% had one in any assay. The source made the active and inactive calls. The calls were made as follows: active = growth percent below 10; inactive = the rest.
Form entry, call: pick from active, inactive

| Compound | Category Label |
| --- | --- |
| Nc1ncccc1O | inactive |
| CCOC(=O)c1cc(C(=O)c2ccc(Cl)cc2)n2ccc(-c3cc[n+](CC(=O)c4ccc(OC)cc4)cc3)cc12 | inactive |
| CCCC(CCC)NCC(O)c1cc(-c2ccc(C(F)(F)F)cc2)nc(C(F)(F)F)c1 (stereo not given) | active |
| CC1COc2c(N3CCN(C)CC3)c(F)cc3c(=O)c(C(=O)N/N=C/c4cc[nH]c4)cn1c23 (stereo not given) | active |
| CO/C=C/C(=O)c1cc2cnc3c(=N)cc(NC(=O)C(C)C)c([nH]1)c23 | active |
| COc1ccc(/C=C2\Oc3cc(OCCCN4CCCC4)ccc3C2=O)c(OC)c1 | inactive |

Task: For "Cn1c2nc3ccccc3c-2nc2ccccc21" , which call appears in the assay record?
Result: inactive

Task: What call does the record list for "COc1cc(Cn2cc3c(c2)-c2onc(CO)c2CC3)cc(OC)c1OC" ?
Result: inactive

Task: Test call, this compound: "CCCc1n(Cc2ccc3ccccc3n2)cc[n+]1Cc1ccc2ccccc2c1"
Result: active

Task: Answer briefly: the call reported for "Cn1cc(-c2csc(-c3cn(C(=O)OC(C)(C)C)c4ccccc34)n2)c2cccnc21" in this assay.
Result: active

Task: Please indicate how the test categorized "COc1ccc(/C=C(/C(=O)N2CCCCC2)c2cc(OC)c(OC)c(OC)c2)cc1" .
Result: inactive

Task: Hi, do you know how "C=C1C(=O)O[C@H]2[C@H]1CC/C(COC(=O)/C=C/c1c[nH]c3ccccc13)=C\CC[C@@]1(C)O[C@@H]21" came out in this test?
Result: active

Task: Name the outcome recorded for CC1=C(C(=O)Nc2ccc(F)cc2)C(c2ccccc2)C2=C(CC(C)(C)CC2=O)N1 (stereo not given) in the assay.
Result: inactive

Task: Fill in: this test's call for "O=C(Cn1ccc2ccccc21)Nc1ccc(-c2nc3ccccc3s2)cc1" is ___
Result: active

Task: Check the results log: what was the call for "O=C(c1ccccc1)C(CCc1ccccn1)CCc1ccccn1" ?
Result: inactive

Task: Please state the recorded outcome for this compound: "C=C[C@@H]1C[C@@H]2Cc3ccccc3N1O2"
Result: inactive

Task: Could you kindly confirm the outcome this assay logged for "CC1(C)CC[C@]23CC[C@]4(C)[C@H](CC[C@@H]5[C@@]6(C)C/C(=C/O)C(=O)C(C)(C)[C@@H]6CC[C@]54C)[C@H]2[C@H]1OC3" ?
Result: inactive

Task: # outcome recorded in this test, key = "O=C1c2cccc3c([N+](=O)[O-])ccc(c23)C(=O)N1CCCCl"
Result: active

Task: Entry "O=C(NCCCCNC(=O)OCc1ccc2c(Cl)cc(Cl)c(O)c2n1)OCc1ccc2c(Cl)cc(Cl)c(O)c2n1" : call = ?
Result: active

Task: Any idea what this test logged for O=C(Nc1ccc2c(c1)-c1ccccc1C2)C1CC(=O)N(c2ccc3c(c2)OCO3)C1 (stereo not given) ?
Result: inactive
